experiment: self-splicing fitness, log relative to wild type (ln ratio); higher = more splicing; Tetrahymena group I intron in knt gene, E. coli kanamycin selection, DiMSum; sequences stand for … in CUCUCU…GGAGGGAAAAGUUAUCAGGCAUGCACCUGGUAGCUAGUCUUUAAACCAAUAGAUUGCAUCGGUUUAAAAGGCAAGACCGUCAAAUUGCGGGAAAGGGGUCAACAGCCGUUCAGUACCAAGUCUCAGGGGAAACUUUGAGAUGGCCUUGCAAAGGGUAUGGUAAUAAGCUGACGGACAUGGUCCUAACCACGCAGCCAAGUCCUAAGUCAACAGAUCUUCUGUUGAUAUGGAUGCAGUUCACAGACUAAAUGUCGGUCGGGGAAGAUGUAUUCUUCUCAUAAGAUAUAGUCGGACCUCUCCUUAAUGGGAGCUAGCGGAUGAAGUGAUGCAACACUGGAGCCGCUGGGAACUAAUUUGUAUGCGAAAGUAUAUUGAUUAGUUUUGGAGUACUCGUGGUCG; details: 37 °C;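 further: selection with 25 µg/mL kanamycin versus none on LB agar overnight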
MEASURED_PROPERTY: self-splicing fitness (ln)
Just the number, please, no unit after it.

// worked examples, self-splicing fitness (ln) included
# RESIDUES, VAL
rows = [
    ("CAUAAGCAAUAUUACGAUCU", -1.85),
    ("UUUAAGCAAUAUUACGGAAU", -2.36),
    ("CGGGAGCAAUAUUACGCAGC", -2.72),
]

So for `ACUAAGCAAUAUUACGAUAA` , the logged self-splicing fitness (ln) turned out to be -0.57

So for `UAUGAGCAAUAUUACGAACU` , the logged self-splicing fitness (ln) turned out to be -1.57

So for `CUUUAGCAAUAUUACGUCCU` , the logged self-splicing fitness (ln) turned out to be -1.9
